- System: LPS-induced TNF-α production in THP-1 cells
- test_details: Inhibition of LPS-induced TNF-α production in THP-1 cells (TNF-α ELISA)
- Assay type: cell-based
- measurement_setup: Homo sapiens, 30 min preincubation with compound, LPS 4 hours, TNF-α in supernatant by ELISA, percentage of DMSO control
Please provide measured pIC50 for the entries that follow.
One number for each entry, as −log10 of the molar value.

compound: COc1cc[nH]c1/C=C1\C(=O)Nc2sccc21 [Example 13]
number: 5.80

Provide reported pIC50 for each item, in the same order as listed.
1. N#Cc1cc2c(s1)NC(=O)/C2=C\c1ccc[nH]1 [Example 20]
2. O=C1Nc2sccc2/C1=C/c1ccc[nH]1 [Example 1]
3. O=C1Nc2sccc2/C1=C/c1c[nH]nc1-c1ccccc1 [Example 9]

5.43
5.29
5.96
